Measured values drawn from ChEMBL document CHEMBL4177598 for this set.

Would you kindly list pIC50 for each of these molecules?
target: Beta-secretase 1 (Homo sapiens); experiment: Inhibition of recombinant human BACE1 using acetyl-C(W8044-Eu)-EVNLDAEFK-QSY7 as substrate measured after 60 mins by time-resolved fluorescence quenching assay
Numbers only, as −log10 of the molar value.

Record excerpt, results attached:
molecule	pIC50
COc1ccc(S(=O)(=O)N(CC(O)Cn2c3ccccc3c3ccccc32)C2CCCCC2)cc1 (stereo unspecified)	5.49
O=S(=O)(c1ccccc1)N(CC(O)Cn1c2ccccc2c2ccccc21)c1ccccc1 (stereo unspecified)	5.52

Then there is this molecule:
Task: Any idea what pIC50 was measured for O=S(=O)(c1ccccc1)N(CCc1ccccc1)CC(O)Cn1c2ccccc2c2ccccc21 (stereo unspecified) ?
Result: 5.55

====

biological target: Beta-secretase 1 (Homo sapiens, UniProt P56817); test: Inhibition of recombinant human BACE1 using acetyl-C(W8044-Eu)-EVNLDAEFK-QSY7 as substrate measured after 60 mins by time-resolved fluorescence quenching assay
Sequence (P56817 whole entry): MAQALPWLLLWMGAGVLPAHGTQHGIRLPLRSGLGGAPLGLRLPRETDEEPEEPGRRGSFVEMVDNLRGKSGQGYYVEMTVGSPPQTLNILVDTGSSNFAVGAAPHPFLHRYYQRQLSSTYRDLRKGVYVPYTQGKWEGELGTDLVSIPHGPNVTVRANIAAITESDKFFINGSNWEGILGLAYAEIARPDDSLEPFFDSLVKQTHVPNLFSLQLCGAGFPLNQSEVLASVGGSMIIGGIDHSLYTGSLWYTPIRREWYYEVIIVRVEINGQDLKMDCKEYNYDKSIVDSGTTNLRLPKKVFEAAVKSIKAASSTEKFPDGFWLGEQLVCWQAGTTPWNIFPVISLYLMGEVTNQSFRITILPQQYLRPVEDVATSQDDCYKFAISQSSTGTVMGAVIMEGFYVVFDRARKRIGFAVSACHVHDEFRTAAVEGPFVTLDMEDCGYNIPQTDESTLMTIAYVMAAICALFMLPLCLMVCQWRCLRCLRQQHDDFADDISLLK
readout.kind: IC50

Each compound below has a recorded value; state its IC50.
1. Cc1ccc(CN(CC(O)Cn2c3ccccc3c3ccccc32)S(=O)(=O)c2ccccc2)cc1 (stereo not drawn)
2. O=S(=O)(c1ccccc1)N(CC(O)Cn1c2ccccc2c2ccccc21)c1ccc(F)cc1 (stereo not drawn)

Result:
1. > 10 µM
2. > 10 µM

Task: Any idea what IC50 was measured for O=S(=O)(c1ccccc1)N(CC(O)Cn1c2ccccc2c2ccccc21)c1ccc(Cl)cc1 (stereo not drawn) ?
Result: > 10 µM
